protocolText: chemical genetic growth profiling, strain panel (AID 1159580);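 note: tested at 20 µM; growth read once vehicle control cultures reached saturation at 30 °C; 1 = growth at the plate median or of vehicle wells; lower values mean less growth of the strain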
testSettings: S. cerevisiae deletion strains, growth OD, locus YER123W, strain YCK3, hits give low values
Among all 5,500 compounds or so, about 2,000 (36%) were called active. Inconclusive results (about 18%) are left out. The list shows a part of the results.
Would you kindly list normalized growth for each of these molecules?
Give bare numbers.

Example results:
>>> assayresult("O=C(CCn1c(=O)oc2ccccc21)Sc1ccc(Cl)cc1Cl")
0.278
>>> assayresult("O=C(Nc1cccc2ccccc12)c1ccccc1O")
0.432

Please go through the list and note normalized growth for each molecule.
1. O=C(CCn1c(=O)oc2ccccc21)Sc1ccc(C(F)(F)F)cc1
2. COc1ccc(C(=O)NCc2csc3ccc(Cl)cc23)cc1OC
3. CSC(=NNc1ccccc1)NC(=O)c1c(Cl)cccc1Cl
4. O=C(Nc1ccc(Cl)cc1)O/N=C\c1ccn(-c2ccccc2)n1
5. Cc1c(S(=O)(=O)c2ccc(Cl)cc2)csc1C(=O)NNc1cccc(Cl)c1
6. NNC(=O)c1csc(Cc2c(Cl)sc3ccc(Cl)cc23)n1
7. Oc1ccc(N=Nc2ccccn2)c(O)c1

1: 0.677; 2: 0.977; 3: 0.812; 4: 0.811; 5: 0.574; 6: 1.01; 7: 0.108

---

Would you kindly list normalized growth for each of these molecules?
protocolText: chemical genetic growth profiling, strain panel (AID 1159580);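 note: tested at 20 µM; growth read once vehicle control cultures reached saturation at 30 °C; 1 = growth at the plate median or of vehicle wells; lower values mean less growth of the strain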
testSettings: S. cerevisiae deletion strains, growth OD, locus YOR290C, strain snf2, hits give low values
Among all 5,500 compounds or so, about 2,000 (36%) were called active. Another 18% or so got no clear call; they are omitted. The list shows a part of the results.
One number for each entry.

>>> assayresult("N#C/C(=C\\c1cccc(O)c1)C(=O)O")
0.967
>>> assayresult("CCCC(C(=O)OCCN(CC)CC)(c1ccccc1)c1ccccc1")
0.998
>>> assayresult("CC(=O)Nc1ccccc1")
0.971
>>> assayresult("O=c1cc(-c2ccccc2)oc2c(O)c(O)ccc12")
0.987
>>> assayresult("Clc1ccc2c(c1)C(N1CCNCC1)=Nc1ccccc1O2")
0.948
>>> assayresult("CN[C@@H]1[C@H](OC2[C@H](O[C@H]3[C@H](O)[C@@H](O)[C@H](N=C(N)N)[C@@H](O)[C@@H]3N=C(N)N)O[C@@H](C)[C@]2(O)C=O)O[C@@H](CO)[C@H](O)[C@H]1O (stereo partly drawn)")
0.977

Please go through the list and note normalized growth for each molecule.
1. O=C(Nc1ccccc1)Nc1ccccc1
2. C[C@H](N)[C@H](O)c1cccc(O)c1

1. 0.907
2. 1.03

Please go through the list and note normalized growth for each molecule.
1. CN1CCN(C2=Nc3ccccc3Oc3ccc(Cl)cc32)CC1
2. c1ccc2nc(N3CCNCC3)ccc2c1
3. CCN(CC)CCOC(=O)C(c1ccccc1)c1ccccc1
4. CC1=C2[C@H]3OC(=O)[C@@H](C)[C@@H]3CC[C@@]2(C)C=CC1=O
5. CCCCS(=N)(=O)CCC(N)C(=O)O (stereo not drawn)
6. O=[N+]([O-])c1cccc2c(Br)[nH]nc12
7. O=c1cc(-c2ccc(O)cc2)oc2cc(O)ccc12

1: 0.941; 2: 0.975; 3: 0.975; 4: 0.982; 5: 0.949; 6: 0.919; 7: 0.921

Please go through the list and note normalized growth for each molecule.
1. COc1cc(OC)c(OC)cc1C=O
2. Cc1cc(O)c(C=O)c2c1C(=O)Oc1c(COC(=O)/C=C/C(=O)O)c(O)c(C(=O)O)c(C)c1O2
3. O=c1cc(-c2ccc(O)cc2)oc2cc(O)cc(O)c12
4. Cc1cc(=O)oc2c(O)c(O)ccc12
5. CC1CCC2(OC1)OC1CC3C4CCC5C[C@@H](O)CCC5(C)C4=CCC3(C)C1[C@@H]2C (stereo partly drawn)
6. C=C[C@H]1CN2CC[C@H]1C[C@@H]2[C@H](O)c1ccnc2ccccc12

1: 1; 2: 0.869; 3: 0.96; 4: 0.962; 5: 1; 6: 0.982

Please go through the list and note normalized growth for each molecule.
1. C[C@@H]1CC2C3CCC4=CC(=O)C=C[C@]4(C)[C@@]3(F)[C@@H](O)C[C@]2(C)[C@H]1C(=O)CO (stereo partly drawn)
2. O=c1cc(-c2cc(O)c(O)c(O)c2)oc2cc(O)cc(O)c12

[1, 0.942]

---

protocolText: chemical genetic growth profiling, strain panel (AID 1159580);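 note: tested at 20 µM; growth read once vehicle control cultures reached saturation at 30 °C; 1 = growth at the plate median or of vehicle wells; lower values mean less growth of the strain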
testSettings: S. cerevisiae deletion strains, growth OD, locus YAL026C, strain drs2, hits give low values
About 2,000 (36%) of roughly 5,500 compounds were called active. Another 18% or so got no clear call; they are omitted. The list shows a part of the results.
propertyMeasured: normalized growth
Answers are plain numbers.

Example results:
>>> assayresult("COC(=O)CCC(C)[C@H]1CCC2C3C(C[C@H](O)[C@@]21C)[C@@]1(C)CC[C@@H](O)C[C@H]1C[C@H]3O (stereo partly specified)")
0.997
>>> assayresult("CO[C@]12C[C@@H](COC(=O)c3cncc(Br)c3)CN(C)[C@@H]1Cc1cn(C)c3cccc2c13")
1
>>> assayresult("S=P(N1CC1)(N1CC1)N1CC1")
1.01
>>> assayresult("C=C1C2CCC3(C)C(c4ccoc4)OC(=O)CC13OC1CC(OC(C)=O)C(C)(C)C(CC(=O)OC)C12C (stereo unspecified)")
1.01
>>> assayresult("CN1CCN(C2=Nc3ccccc3Oc3ccc(Cl)cc32)CC1")
0.984
>>> assayresult("O=c1cc(-c2ccccc2)oc2cc(O)c(O)c(O)c12")
0.198

Please go through the list and note normalized growth for each molecule.
1. NNCCc1ccccc1
2. CC[C@H](CCC(C)[C@H]1CCC2C3CCC4C[C@@H](O)CC[C@]4(C)C3CC[C@@]21C)C(C)C (stereo partly specified)

1: 1.02; 2: 0.955

Please go through the list and note normalized growth for each molecule.
1. CCN(CCCc1ccccc1)CCCc1ccccc1
2. COc1cc(S(C)=O)ccc1-c1nc2ncccc2[nH]1 (stereo unspecified)
3. CSc1ccc2c(c1)N(CCC1CCCCN1C)c1ccccc1S2 (stereo unspecified)

1. 0.862
2. 0.994
3. 0.23

Please go through the list and note normalized growth for each molecule.
1. NS(=O)(=O)c1cc2c(cc1Cl)NC(C1CC3C=CC1C3)NS2(=O)=O (stereo unspecified)
2. COc1cc([C@H]2Oc3cc([C@H]4Oc5cc(O)cc(O)c5C(=O)[C@@H]4O)ccc3O[C@@H]2CO)ccc1O
3. COc1c(Cl)ccc(Cl)c1C(=O)O
4. Cc1cc(O)c(C=O)c2c1C(=O)Oc1c(COC(=O)/C=C/C(=O)O)c(O)c(C(=O)O)c(C)c1O2

1. 0.99
2. 1
3. 0.988
4. 0.841

Please go through the list and note normalized growth for each molecule.
1. N#C/C(=C\c1cccc(O)c1)C(=O)O
2. CC(CCC(=O)O)[C@H]1CCC2C3CC[C@@H]4C[C@H](O)CC[C@]4(C)C3C[C@H](O)[C@@]21C (stereo partly specified)

[0.985, 0.98]

---

protocolText: chemical genetic growth profiling, strain panel (AID 1159580);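 note: tested at 20 µM; growth read once vehicle control cultures reached saturation at 30 °C; 1 = growth at the plate median or of vehicle wells; lower values mean less growth of the strain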
testSettings: S. cerevisiae deletion strains, growth OD, locus YOR270C, strain vph1, hits give low values
The campaign covered roughly 5,500 compounds. About 2,000 (36%) were called active. About 18% were inconclusive and are not listed. Some of the results follow.
propertyMeasured: normalized growth

Please go through the list and note normalized growth for each molecule.
1. Nc1ccn(C2O[C@H](CO)[C@@H](O)[C@H]2O)c(=O)n1 (some centres undefined)
2. Cc1ncc([N+](=O)[O-])n1CC(C)O (centres undefined)
3. CCCC(CCC)C(=O)O

0.956 (inactive)
0.97 (inactive)
1.07 (inactive)

Please go through the list and note normalized growth for each molecule.
1. CC(=O)N=c1sc(S(N)(=O)=O)nn1C
2. COC(=O)CCC(C)[C@H]1CCC2C3C(C[C@H](O)[C@@]21C)[C@@]1(C)CC[C@@H](O)C[C@H]1C[C@H]3O (some centres undefined)
3. N[C@H](Cc1ccccc1)C(=O)O
4. CN(C(=O)CN(CCO)CC(=O)N(C)C(C)(C)Cc1ccccc1)C(C)(C)Cc1ccccc1
5. Cc1nc2ccccn2c(=O)c1CCN1CCC(C(=O)c2ccc(F)cc2)CC1
6. OC[C@H]1OC([S-])[C@H](O)[C@@H](O)[C@@H]1O.[Au+] (some centres undefined)
7. CC(CCC(=O)O)[C@H]1CCC2C3C(C[C@H](O)[C@@]21C)[C@@]1(C)CC[C@@H](O)C[C@H]1C[C@H]3O (some centres undefined)
8. S=P(N1CC1)(N1CC1)N1CC1

1. 1.02 (inactive)
2. 0.913 (inactive)
3. 0.986 (inactive)
4. 1.09 (inactive)
5. 1.01 (inactive)
6. 1.27 [resistant] (active)
7. 1.11 (inactive)
8. 1.01 (inactive)

Please go through the list and note normalized growth for each molecule.
1. CC1CCC2(OC1)OC1CC3C4CCC5C[C@@H](O)CCC5(C)C4=CCC3(C)C1[C@@H]2C (some centres undefined)
2. C=C[C@H]1CN2CC[C@H]1C[C@@H]2[C@H](O)c1ccnc2ccccc12
3. CC12CC3CC(C)(C1)CC(N)(C3)C2
4. CC(CN1c2ccccc2Sc2ccccc21)N(C)C (centres undefined)
5. C[C@]12C=CC(=O)C=C1CCC1C3C[C@@H](O)[C@](O)(C(=O)CO)[C@@]3(C)C[C@H](O)[C@@]12F (some centres undefined)
6. Nc1cc(C(Cl)=C(Cl)Cl)c(S(N)(=O)=O)cc1S(N)(=O)=O

["1.04 (inactive)", "1 (inactive)", "0.921 (inactive)", "0.998 (inactive)", "0.988 (inactive)", "1.05 (inactive)"]

Please go through the list and note normalized growth for each molecule.
1. NC(=O)c1ncn(C2O[C@H](CO)[C@@H](O)[C@H]2O)c1N (some centres undefined)
2. CCN(CC)C(C)CN1c2ccccc2Sc2ccccc21 (centres undefined)
3. COc1cc([C@@H]2c3cc4c(cc3[C@H](OC(C)=O)[C@H]3COC(=O)[C@@H]23)OCO4)cc(OC)c1OC
4. C/C=C/C(=O)N(CC)c1ccccc1C
5. NC(N)=O
6. C[C@@H](N)[C@@H](O)c1ccccc1

1.05 (inactive)
0.67 (active)
0.847 (inactive)
0.999 (inactive)
1.02 (inactive)
0.9 (inactive)

Please go through the list and note normalized growth for each molecule.
1. CN(C)CCC(c1ccc(Br)cc1)c1ccccn1 (centres undefined)
2. CCCCCC1C(=O)CCC1CC(=O)OC (centres undefined)
3. COc1c2ccoc2nc2c(OC)c(OCC(O)C(C)(C)O)ccc12 (centres undefined)
4. O=[N+]([O-])c1cccc2cn[nH]c12
5. O=[N+]([O-])c1cccc2c(Br)[nH]nc12
6. O=C(O)c1ccccc1C(=O)Nc1ccc(S(=O)(=O)Nc2nccs2)cc1
7. CCN(CCCc1ccccc1)CCCc1ccccc1

1: 0.981 (inactive); 2: 0.997 (inactive); 3: 1.07 (inactive); 4: 0.992 (inactive); 5: 0.804 (inactive); 6: 0.983 (inactive); 7: 0.885 (inactive)

Please go through the list and note normalized growth for each molecule.
1. C=Cc1c(C)c2[n-]c1=Cc1[n-]c(c(CC)c1C)C=c1[n-]c3c(c1C)C(=O)C(C(=O)[O-])C=3c1[n-]c(c(C)c1CCC(=O)[O-])C=2.[Cu] (centres undefined)
2. CNCCCN1c2ccccc2CCc2ccccc21
3. C[C@@H]1CC2C3C[C@H](F)C4=CC(=O)C=C[C@]4(C)[C@@]3(F)[C@@H](O)C[C@]2(C)[C@@]1(O)C(=O)COC(=O)C(C)(C)C (some centres undefined)

["1.15 (inactive)", "0.961 (inactive)", "1.01 (inactive)"]

Please go through the list and note normalized growth for each molecule.
1. NC(Cc1ccc(F)cc1)C(=O)O (centres undefined)
2. CCOC(=O)[C@H](CCc1ccccc1)N[C@@H](C)C(=O)N1Cc2ccccc2C[C@H]1C(=O)O
3. CC(CCC(=O)O)[C@H]1CCC2C3CC[C@@H]4CCCC[C@]4(C)C3CC[C@@]21C (some centres undefined)
4. CC(CN(C)C)CN1c2ccccc2Sc2ccccc21 (centres undefined)

1: 1.02 (inactive); 2: 0.853 (inactive); 3: 1.01 (inactive); 4: 1.08 (inactive)

Please go through the list and note normalized growth for each molecule.
1. CNC(=O)Oc1ccc2c(c1)[C@]1(C)CCN(C)[C@@H]1N2C
2. CCCCCC1C(=O)CCC1CC(=O)O (centres undefined)

1.13 (inactive)
0.961 (inactive)

The reported measurements were obtained from PubChem BioAssay AID1159580.
